Values from paper PMC7915519

Catalogue of IC50 values
System: human skin fibroblasts (1BR.3.N cell line)
Assay Explanation: Cytotoxicity, Presto Blue cell viability assay on human skin fibroblasts
Assay type: cell-based
Test Parameters: 1BR.3.N human skin fibroblasts, 24 h incubation, Hill Equation, read-out: IC50 Values (Mean ± SD) Fibroblasts
Dear colleague, please return just the value in µM, with no unit written.

Consider the following illustrative entries.
>  <Compound>
NCC(=O)[O-].NCC(=O)[O-].[Zn+2] [ZnGly (2)]

>  <Test System>
human skin fibroblasts (1BR.3.N cell line)

>  <Value Type>
IC50

>  <Result>
120

$$$$
>  <Compound>
[Cl-].[Cl-].[Zn+2] [ZnCl2]

>  <Test System>
human skin fibroblasts (1BR.3.N cell line)

>  <Value Type>
IC50

>  <Result>
163

$$$$

Next, consider the following compound.
Query block: I would be grateful if you could share the reported IC50 for O=C1CCC(C(=O)[O-])N1.O=C1CCC(C(=O)[O-])N1.[Zn+2] (stereo not drawn) [ZnPCA, zinc 2-pirrolidone 5-carboxylate] .
Result block: 172
